These measurements were taken from ChEMBL document CHEMBL1201862.

test system: SK-OV-3; assay: NCI tumour cell line growth inhibition, 48 h
Activity calls are given as the source filed them. Cut-off read from the data, not from the text of the source: active = GI50 up to about 1.1 µM and inactive = higher.
Write down the outcome that applies. Available outcomes: active, inactive

// query Assay outcome for `C[Si](C)(c1ccccc1)C1CC(=O)CC(=O)C1` : what was it?
// result inactive

// query Assay outcome for `Cc1n(CC(=O)c2ccc([N+](=O)[O-])cc2)c2c([n+]1CC(C)C)C(=O)c1ccccc1C2=O` : what was it?
// result active

// query Assay outcome for `Cc1nc(N)sc1/N=N/c1ccccc1Br` : what was it?
// result inactive

// query Assay outcome for `O=C1N=C(c2ccccc2)O/C1=C\c1ccccc1` : what was it?
// result inactive

// query Assay outcome for `Cc1nc(C)c(N2CCN([N+](=O)[O-])CC2)c(O)n1` : what was it?
// result inactive

// query Assay outcome for C/C=C\C(CC(=O)NCCc1c[nH]c2ccccc12)CC(=O)OC (stereo unspecified) : what was it?
// result inactive

// query Assay outcome for `O=C(N/N=C1/C(=O)c2c3ccccc3cc3cccc1c23)c1cccc(Cl)c1` : what was it?
// result inactive

// query Assay outcome for `CC(C)/C(Cl)=N/OC(=O)Nc1cccc(C(F)(F)F)c1` : what was it?
// result inactive

// query Assay outcome for Cc1ccc(N2Cc3c(ccc4ccccc34)OP2(=S)N2CCCC2)cc1 (stereo unspecified) : what was it?
// result inactive

// query Assay outcome for `COc1ccc(/C=N/NC(=S)Nc2cc(C)ccc2OC)cc1` : what was it?
// result inactive

// query Assay outcome for `CN(C)/C=N/S(=O)(=O)c1nn2c(C=O)c(-c3ccccc3)nc2s1` : what was it?
// result inactive

====

tested on: MDA-N; test: NCI tumour cell line growth inhibition, 48 h
Activity calls are given as the source filed them. Rule as the data show it: active = GI50 up to about 1.1 µM and inactive = higher. Where a SMILES comes first, the peptide text is derived from it. Peptide text beside a SMILES is read from it. [ ]: non-standard residue; d: D form. * marks the point of attachment. Hiv = CC(C)[C@H](O)C(=O)O; Boc = CC(C)(C)OC(=O)*
Give GI50 for every item shown.

// query Please give the documented GI50 of Clc1ccc(C2ON=C(c3ccccc3)N2C23CC4CC(CC(C4)C2)C3)c(Cl)c1 (stereo unspecified)
// result > 10 µM (inactive)

// query Please give the documented GI50 of CCOP(=O)(O)CC1OC(CO)C(O)C1O (stereo unspecified)
// result > 100 µM (inactive)

// query Please give the documented GI50 of COC(=O)C(Cc1ccccc1)NC(=O)C(CS)NC(=O)OC(C)(C)C (stereo not drawn) (Boc-Cys-Phe-OMe; configuration not given here)
// result > 100 µM (inactive)

// query Please give the documented GI50 of COP(=O)(OC)C(O)CC(C)C (stereo unspecified)
// result > 100 µM (inactive)

// query Please give the documented GI50 of `NC(=O)C(=O)n1ncc(Cl)c(Cl)c1=O`
// result > 100 µM (inactive)

// query Please give the documented GI50 of `O=c1[nH]cnc2c1ncn2[C@@H]1C[C@@H]1CO`
// result > 100 µM (inactive)

// query Please give the documented GI50 of `COc1ccccc1/C=C1\S/C(=N/Nc2nc(C)c(C(C)=O)s2)NC1=O`
// result 29.9 µM (inactive)

// query Please give the documented GI50 of `O=S(=O)(c1ccc(I)cc1)N(c1ccccc1)S(=O)(=O)C(F)(F)C(F)(F)C(F)(F)C(F)(F)F`
// result 60.1 µM (inactive)

// query Please give the documented GI50 of CC(C)[C@@H]1OC(=O)[C@@H](C)NC(=O)[C@@H]2CCCN2C1=O (cyclo([Hiv]-Pro-[dA]))
// result > 100 µM (inactive)

// query Please give the documented GI50 of `N#CC(C#N)=CNC(=S)Nc1ccc(S(=O)(=O)Nc2nccs2)cc1`
// result > 100 µM (inactive)

// query Please give the documented GI50 of `COc1cc(-c2ccc(Nc3ccccc3C(=O)O)c(OC)c2)ccc1Nc1ccccc1C(=O)O`
// result 10 µM (inactive)

// query Please give the documented GI50 of `CC(=O)Nc1ccc2c(C)c3c(nc2n1)[nH]c1ccccc13`
// result 18.1 µM (inactive)

// query Please give the documented GI50 of `CC[C@@]1(O)C(=O)OCc2c1c(Cl)c1n(c2=O)Cc2cc3ccccc3nc2-1`
// result 7.24 µM (inactive)

// query Please give the documented GI50 of `COC(=O)C1=C(CCCCO[Si](C)(C)C(C)(C)C)NC(=O)N2[C@@H](CCOCc3ccccc3)CC[C@H]12`
// result 17.6 µM (inactive)

// query Please give the documented GI50 of `O=C1CN(c2ccccc2)C(=O)CN1NCNN1CC(=O)N(c2ccccc2)CC1=O`
// result > 100 µM (inactive)

// query Please give the documented GI50 of CC(C)CC1N=C(OCc2ccccc2)OC1=O (stereo unspecified)
// result > 100 µM (inactive)

// query Please give the documented GI50 of `CC(C)/C(Cl)=N/OC(=O)Nc1cccc(C(F)(F)F)c1`
// result 10.6 µM (inactive)

// query Please give the documented GI50 of `COC(=O)c1ccc(OCCn2nnc(C(=O)NN)c2C(=O)NN)cc1`
// result > 100 µM (inactive)

// query Please give the documented GI50 of `COc1cc(OC(=O)c2ccccc2)cc2c1C(=O)C=CC2=O`
// result 6.44 µM (inactive)

// query Please give the documented GI50 of CCN1CN(c2ccccc2)C2(CCN(CC3COc4ccccc4O3)CC2)C1=O (stereo unspecified)
// result 2.28 µM (inactive)

// query Please give the documented GI50 of CCCCSCCC(N)P(=O)(O)O (stereo unspecified)
// result > 100 µM (inactive)

// query Please give the documented GI50 of O=C(OCCN1CCCCC1)C(c1ccccc1)C1(O)CCSCC1 (stereo unspecified)
// result > 100 µM (inactive)

// query Please give the documented GI50 of CCOC(=O)C(=O)C(/C(=N/N(C)C)C(=O)Nc1ccc(C)cc1C)c1nc2ccccc2nc1O (stereo unspecified)
// result > 100 µM (inactive)

// query Please give the documented GI50 of C[C@]12CCNC(=O)C=C1CC[C@@H]1C2CC[C@@]2(C)C1CC[C@@H]2OC(=O)COc1ccc(N(CCCl)CCCl)cc1 (stereo partly specified)
// result 13.3 µM (inactive)

// query Please give the documented GI50 of C/C=C\C(CC(=O)NCCc1c[nH]c2ccccc12)CC(=O)OC (stereo unspecified)
// result > 100 µM (inactive)

// query Please give the documented GI50 of `CC(C)(C)SC1=CCC[C@@H](P(=O)(c2ccccc2)c2ccccc2)[C@@H]2CCC[C@@H]12`
// result 16.1 µM (inactive)

// query Please give the documented GI50 of `CCOC(=O)c1ccc(/N=C/C=C(\Nc2ccc(C(=O)OCC)cc2)C23CC4CC(CC(C4)C2)C3)cc1`
// result 61.1 µM (inactive)

// query Please give the documented GI50 of `Cc1nc(/C(=N\n2cnnc2)Nc2ccc(Br)cc2)no1`
// result > 100 µM (inactive)

// query Please give the documented GI50 of `CN(C)c1ccc2c(c1)oc(=O)c1ccccc12`
// result 6.27 µM (inactive)

// query Please give the documented GI50 of `O=C1N=C(c2ccccc2)O/C1=C\c1ccccc1`
// result > 100 µM (inactive)

// query Please give the documented GI50 of O=C1OC(C2Cc3cc4c(cc3C2=O)CCC4)c2ccccc21 (stereo unspecified)
// result 75.3 µM (inactive)

// query Please give the documented GI50 of Cc1ccc(S(=O)(=O)NNC2(NS(=O)(=O)c3ccc(Cl)cc3)C(Cl)=C(Cl)C(=O)c3ccccc32)cc1 (stereo unspecified)
// result 17.4 µM (inactive)

// query Please give the documented GI50 of `COCN1CCN=c2c1c1c3c(c4ccccc4n23)CCC1`
// result > 100 µM (inactive)

// query Please give the documented GI50 of `CC(=O)Oc1ccc(/C=C/C(=O)O[C@@H](C(=O)O)[C@@H](OC(=O)/C=C/c2ccc(OC(C)=O)c(OC(C)=O)c2)C(=O)O)cc1OC(C)=O`
// result > 100 µM (inactive)

// query Please give the documented GI50 of COc1cccc(CC2Cc3ccccc3CC(=O)N2)c1 (stereo unspecified)
// result 48.1 µM (inactive)

// query Please give the documented GI50 of `COc1cccc(/C=C/c2cnc3ccccc3n2)c1OC`
// result 61.1 µM (inactive)

// query Please give the documented GI50 of `c1ccc2c(c1)nc1n2CSCC1`
// result > 100 µM (inactive)

// query Please give the documented GI50 of `c1ccc(-c2cnc(-c3ccc(-c4ncc(-c5ccccc5)o4)cc3)o2)cc1`
// result > 100 µM (inactive)

// query Please give the documented GI50 of `CCCCCCCCCCCCCCCCCCNC(=S)NC=C1C(=O)c2ccccc2C1=O`
// result 16 µM (inactive)

// query Please give the documented GI50 of CC(Oc1ccccc1Cl)C(=O)NN1C(=O)CC(=O)N(c2ccccc2)C1=S (stereo unspecified)
// result 82.2 µM (inactive)

// query Please give the documented GI50 of COC(=O)N1CC2(CO)C3CC=C(C(=O)Nc4ccccc4Br)C2C1C3Br (stereo unspecified)
// result > 50 µM (inactive)
